Values from patent US6391280B1

Could you please report measured Relaxation rate, molar relaxivity 1/T1 for the items listed next?
- Experimental Protocol: Molar Relaxivities 1/T1 of Paramagnetic Compounds
- Format: physicochemical
- Condition Parameters: in water at 10.7 MHz, 37° C. (values marked *)
Marks after values point to notes of the source that are not given here.

Prompt: Which value of Relaxation rate, molar relaxivity 1/T1 has been reported for [Cl][Gd]([Cl])[Cl] [GdCl] in the records?
Completion: 14.67* (mMs)^−1

Prompt: Next record, please: O=S(=O)([O-])c1ccc(-c2c3nc(c(-c4ccc(S(=O)(=O)[O-])cc4)c4ccc([n-]4)c(-c4ccc(S(=O)(=O)[O-])cc4)c4ccc([n-]4)c(-c4ccc(S(=O)(=O)[O-])cc4)c4nc2C=C4)C=C3)cc1.[Mn+3] [MnTPPS4]
Completion: 10.39* (mMs)^−1

Prompt: Next record, please: O=C([O-])CN(CCN(CC(=O)[O-])CC(=O)O)CCN(CC(=O)[O-])CC(=O)O.[Gd+3] [GDDTP A]
Completion: 5.05* (mMs)^−1

Prompt: Next record, please: [Cl][Mn][Cl] [MnCl2]
Completion: 9.32* (mMs)^−1
